# ASSAY NAME: Lipophilicity determined as logarithm of the partition coefficient in the alkane/water system
# RUN PARAMETERS: octanol/water
For each record, write down the corresponding Log PNalk.
Numbers only.

Check out these entries, answers already filled in.
> print(dat)
                                   molecule  experimental.value
1  C[C@]12C[C@H](O)[C@H]3[C@@H](CCC4=CC(=O)CC[C@@]43C)[C@@H]1CC[C@@H]2C(=O)CO               -1.62
2  C[C@]12CC[C@@H]3c4ccc(O)cc4CC[C@H]3[C@@H]1C[C@@H](O)[C@@H]2O               -0.64
3  C=CCC1(C(C)CCC)C(=O)NC(=O)NC1=O (stereo not given)               -0.99

Would you mind giving Log PNalk for every molecule in the list below?
1. CCN
2. CCCCC(C)=O
3. O=[N+]([O-])c1ccccc1
4. N#Cc1ccccc1O
5. C[C@]12CC[C@@H]3c4ccc(O)cc4CC[C@H]3[C@@H]1CCC2=O
6. COc1ccc(Cc2nccc3cc(OC)c(OC)cc23)cc1OC

1: -1.77; 2: 0.87; 3: 1.55; 4: -1.85; 5: 0.48; 6: 0.75

Would you mind giving Log PNalk for every molecule in the list below?
1. O=C(O)Cc1ccccc1
2. CCCC(C)C1(CC)C(=O)NC(=S)NC1=O (stereo not given)
3. CCCOC(C)=O

1: -1.6; 2: 0.52; 3: 0.9

Would you mind giving Log PNalk for every molecule in the list below?
1. CC(=O)c1ccccc1
2. c1ccc(-c2ccccc2)cc1
3. Nc1ccccc1

1. 1.14
2. 4
3. 0.03

---

# ASSAY NAME: Lipophilicity determined as logarithm of the partition coefficient in the alkane/water system
# RUN PARAMETERS: octanol/water
Output: class label from Log PNalk. Mapping: band 1 = under -2, band 2 = from -2 up to 0, band 3 = 0 and over

Study these solved cases before continuing.
> print(dat)
                compound     cat
1  [O-][n+]1ccc2ccccc2c1  band 1
2                  CCCCN  band 2

Note: place this compound into its band. Item: CC(=O)[C@H]1CC[C@H]2[C@@H]3CC=C4C[C@@H](O)CC[C@]4(C)[C@H]3CC[C@]12C
band 3

Could you do the same for CCC1(CC)C(=O)NC(=O)NC1=O , please?
band 1

Now try N#Cc1ccc(O)cc1 .
band 1

Same question for Cc1ccccc1O please.
band 3

Repeat with CCC(C)=O
band 2

Now the same for Cc1ncc2c(c1O)COC2c1ccc(Cl)cc1 (configuration not stated)
band 2

Same thing, different compound: Cc1cccc(O)c1
band 2

Now give it for N#Cc1ccccc1 too.
band 3

Note, next up: O=[N+]([O-])c1ccc(O)cc1
band 1

And then C[C@]12CCC(=O)C=C1CC[C@@H]1[C@@H]2[C@@H](O)C[C@]2(C=O)[C@@H](C(=O)CO)CC[C@@H]12 , what is it?
band 1

Cool, now CC(C)=O
band 2

Same again, this time with CSC
band 3

Field entry: CCCC(C)=O
band 3

Quick one: C[C@]12CC[C@@H]3c4ccc(O)cc4CC[C@H]3[C@@H]1CC[C@@H]2O
band 2

---

# ASSAY NAME: Lipophilicity determined as logarithm of the partition coefficient in the alkane/water system
# RUN PARAMETERS: octanol/water
Threshold rule: Log PNalk greater than or equal to 1 is condition met; below that, condition not met.

Illustrative cases are given below, each with its answer.
> print(dat)
        compound                cat
1  Oc1ccc(Cl)cc1  condition not met
2     CNc1ccccc1      condition met
3     OCc1ccccc1  condition not met

Is reported Log PNalk greater than or equal to 1 here: COc1cccc([C@@]2(O)CCCC[C@@H]2CN(C)C)c1
condition met

---

# ASSAY NAME: Lipophilicity determined as logarithm of the partition coefficient in the alkane/water system
# RUN PARAMETERS: octanol/water
Hi there, I'd appreciate the recorded Log PNalk for every entry that follows.
One number for each entry.

> print(dat)
                                   compound  experimental.value
1  Cc1ccc(Cc2cnc(NCCCCc3ncc(Br)cc3C)[nH]c2=O)cn1                1.28
2                                  CCC(=O)O               -2.14
3                      CN[C@@H](C)Cc1ccccc1                1.24
4                               Oc1ccccc1Br                1.04
5       CC(C)(C)NC[C@H](O)COc1nsnc1N1CCOCC1                  -1
6             CC(=O)Nc1ccccc1 [ACETANILIDE]                -1.7

For every item below, please supply its Log PNalk.
1. O=C([O-])Cc1ccccc1Nc1c(Cl)cccc1Cl.[Na+] [DICLOFENAC SODIUM]
2. CN[C@@H](C)[C@H](O)c1ccccc1

[1.72, -0.77]

Field: Log PNalk. Fill in for each record below.
1. c1ccc2[nH]ccc2c1
2. CCN(CC)CCOC(=O)c1ccc(N)cc1
3. N=C(N)N/N=C/c1c(Cl)cccc1Cl
4. CC(Cl)(Cl)Cl
5. CCCCNc1ccc(C(=O)OCCN(C)C)cc1
6. CC(=O)[C@H]1CC[C@H]2[C@@H]3CCC4=CC(=O)CC[C@]4(C)[C@H]3CC[C@]12C
7. Fc1ccccc1
8. O=C1NC(=O)C(c2ccccc2)(c2ccccc2)N1

[0.68, -0.67, -1.6, 2.71, 1.75, 1.23, 2.46, -0.3]

Hey, can you go through the list below and give me Log PNalk for every item?
1. [O-][S+](c1ccccc1)c1ccccc1
2. CC(C)CO
3. O=[N+]([O-])c1ccccc1O [NITROPHENOLATE]

[0.67, -0.98, 1.04]

Batch lookup, Log PNalk per entry.
1. CO
2. CN(C)c1ccccc1
3. Oc1cc(Cl)cc(Cl)c1
4. Oc1ccc(C(F)(F)F)cc1
5. CCC1(c2ccccc2)C(=O)NC(=O)NC1=O
6. COc1ccc([C@@H]2Sc3ccccc3N(CCN(C)C)C(=O)[C@@H]2OC(C)=O)cc1
7. COc1ccccc1

1: -2.8; 2: 2.4; 3: 0.35; 4: -0.15; 5: -2.75; 6: 1.37; 7: 2.15

// for each compound in input: emit Log PNalk
1. Clc1ccccc1
2. Cc1ccc(O)cc1

1: 2.99; 2: -0.19
